We begin with a simple list: items and their reported log10(CLint scaled at 1 µM).
assay: in vitro; conditions: human, hepatocytes, HH_scaled_CLint,u
Please be aware that the numbers have been log10-transformed from CLint scaled at 1 µM in mL/min/kg.

As a guide, the following entries are already answered.
>>> print(df.to_string())
                                   compound            reported_property  data_value
0  CCN(CC)Cc1cc(Nc2ccnc3cc(Cl)ccc23)ccc1O [Amodiaquine]  log10(CLint scaled at 1 µM)        3.39
1  COc1cc2ncnc(Nc3ccc(F)c(Cl)c3)c2cc1OCCCN1CCOCC1 [Gefitinib]  log10(CLint scaled at 1 µM)        1.66
2  CN(C)CCCN1c2ccccc2Sc2ccc(Cl)cc21 [Chlorpromazine]  log10(CLint scaled at 1 µM)        2.45
3  C[C@@H](c1ccc2nccn2c1)n1nnc2ncc(-c3cnn(C)c3)nc21 [Savolitinib]  log10(CLint scaled at 1 µM)        0.47
4  O=C(O)Cc1ccccc1Nc1c(Cl)cccc1Cl [Diclofenac]  log10(CLint scaled at 1 µM)        2.57

Returns the measured log10(CLint scaled at 1 µM) for the input compound. Input: CC(=O)CC(c1ccccc1)c1c(O)c2ccccc2oc1=O (stereo not shown) [Warfarin]
0.93

Returns the measured log10(CLint scaled at 1 µM) for the input compound. Input: Cn1c(=O)c2c(ncn2C)n(C)c1=O [Caffeine]
0.86

Returns the measured log10(CLint scaled at 1 µM) for the input compound. Input: O=C(O)c1cc(-c2ccc(F)cc2F)ccc1O [Diflunisal]
1.31

---

test: CLint in NADH-supplemented human liver microsomes; details: human, microsomes, pH 7.4, Scaled midazolam CLint,u, HLM, cofactor NADH (Fig. 5b)
reported property: CLint scaled at 1 µM
Reply with the number and its unit after it.

Returns the measured CLint scaled at 1 µM for the input molecule. Input: Cc1ncc2n1-c1ccc(Cl)cc1C(c1ccccc1F)=NC2
247 mL/min/kg

---

experiment: CLint in NADH-supplemented human liver microsomes; conditions: human, human liver microsomes + NADH, pH 7.4
Threshold check on microsomal CLint at 1 µM: strictly below 6 µL/min/mg is true (1); on or above 6 µL/min/mg is false (0).

Answered cases to consult:
In [3]: df
Out[3]:
                                   compound  label_value
0  CCCc1nn(C)c2c(=O)[nH]c(-c3cc(S(=O)(=O)N4CCN(C)CC4)ccc3OCC)nc12    false (0)
1  CCN(C(=O)c1cc(F)ccc1Oc1cncnc1N1CC2(CCN(C[C@H]3CC[C@H](NS(=O)(=O)CC)CC3)CC2)C1)C(C)C    false (0)
2  Cc1c(C)c2c(c(C)c1O)CCC(C)(COc1ccc(CC3SC(=O)NC3=O)cc1)O2 (centres unmarked)     true (1)
3                Cn1c(=O)c2c(ncn2C)n(C)c1=O     true (1)

Does the reported microsomal CLint at 1 µM of O=C(c1ccc(F)cc1)C1CCN(CCn2c(=O)[nH]c3ccccc3c2=O)CC1 stay below 6 µL/min/mg?
true (1)

Does the reported microsomal CLint at 1 µM of CN1CCC(n2cc(Nc3nc(OC4(C)CC4)c4nc(-c5cncnc5)c(F)cc4n3)cn2)CC1 stay below 6 µL/min/mg?
false (0)

Does the reported microsomal CLint at 1 µM of CN(C)CCCN1c2ccccc2Sc2ccc(Cl)cc21 stay below 6 µL/min/mg?
false (0)

---

assay: in vitro; settings: human, hepatocytes, Midazolam scaled CLint,u
reported property: CLint scaled (mL/min/kg)
Answer format: numeric, mL/min/kg implied, no suffix.

Returns the measured CLint scaled for the input compound. Input: Cc1ncc2n1-c1ccc(Cl)cc1C(c1ccccc1F)=NC2
104

---

Test: Incubations in HLM + NADPH from the same donor pool as S9
Assay type: in vitro ADME, human
Conditions: human, human liver microsomes, pH 7.4, Midazolam CLint, HLM (same donors as S9) + NADPH, midazolam 1 µM alone (Fig. 6b)
Text: Liver S9 (lot 1810001, pool of 50, Xenotech) and HLM (pool of 50, lot 1810003, Xenotech) from the same pool of donors were purchased from Xenotech.
reported property: microsomal CLint at 1 µM (µL/min/mg)
Answer format: numeric, µL/min/mg implied, no suffix.

Returns the measured microsomal CLint at 1 µM for the input molecule. Input: Cc1ncc2n1-c1ccc(Cl)cc1C(c1ccccc1F)=NC2
276

---

assay: Free fraction in HLM incubation, equilibrium dialysis; type: in vitro ADME, human; conditions: human, human liver microsomes, pH 7.4
reported property: fraction unbound at 4 h, 1 µM
# answer = number (no unit)

Returns the measured fraction unbound at 4 h, 1 µM for the input compound. Input: C[C@@H](c1ccc2nccn2c1)n1nnc2ncc(-c3cnn(C)c3)nc21
0.935

---

experiment: Incubations in human liver S9 + NADPH (same donor pool as HLM); type: in vitro ADME; conditions: human, human liver S9, pH 7.4, Midazolam CLint, S9 + NADPH, midazolam 1 µM alone (Fig. 6b)
reported property: microsomal CLint at 1 µM (µL/min/mg)
Answer format: numeric, µL/min/mg implied, no suffix.

Returns the measured microsomal CLint at 1 µM for the input molecule. Input: Cc1ncc2n1-c1ccc(Cl)cc1C(c1ccccc1F)=NC2 [Midazolam]
77.2

---

assay: CLint in NADPH-supplemented human liver microsomes; details: NADPH-HLM average over HH average, Fig. 1
We begin with a simple list: items and their reported HLM/HH (ratio of scaled CLint,u).

compound	HLM/HH (ratio of scaled CLint,u)
C[C@]12C=CC(=O)C=C1CC[C@@H]1[C@@H]2[C@@H](O)C[C@@]2(C)[C@H]1CC[C@]2(O)C(=O)CO [Prednisolone]	2.917
C[C@@H]1C[C@H]2[C@@H]3CCC4=CC(=O)C=C[C@]4(C)[C@@]3(F)[C@@H](O)C[C@]2(C)[C@@]1(O)C(=O)CO [Dexamethasone]	10.6204
CCC1=C[C@@H]2CN(C1)Cc1c([nH]c3ccccc13)[C@@](C(=O)OC)(c1cc3c(cc1OC)N(C)[C@H]1[C@@](O)(C(=O)OC)[C@H](OC(C)=O)[C@]4(CC)C=CCN5CC[C@]31[C@@H]54)C2 [Vinorelbin]	13.7107
CNC(=O)c1ccccc1Sc1ccc2c(/C=C/c3ccccn3)n[nH]c2c1 [Axitinib]	6.956

Returns the measured HLM/HH (ratio of scaled CLint,u) for the input compound. Input: C[C@]12C=CC(=O)C=C1CC[C@@H]1[C@@H]2C(=O)C[C@@]2(C)[C@H]1CC[C@]2(O)C(=O)CO [Prednisone]
0.4866

Returns the measured HLM/HH (ratio of scaled CLint,u) for the input compound. Input: C[C@]12CCC(=O)C=C1CC[C@@H]1[C@@H]2[C@@H](O)C[C@@]2(C)[C@H]1CC[C@]2(O)C(=O)CO [hydrocortisone]
2.834

---

We begin with a simple list: items and their reported CLint scaled at 1 µM.
assay: CLint in NADPH-supplemented human liver microsomes; conditions: human, human liver microsomes + NADPH, pH 7.4, Scaled HLM CLint,u, NADPH-HLM, individual determinations 1-3, Fig. 1
Answer format: numeric, mL/min/kg implied, no suffix.

Returns the measured CLint scaled at 1 µM for the input molecule. Input: C[C@]12CCC(=O)C=C1CC[C@@H]1[C@@H]2[C@@H](O)C[C@@]2(C)[C@H]1CC[C@]2(O)C(=O)CO [hydrocortisone]
54.9

Returns the measured CLint scaled at 1 µM for the input molecule. Input: C[C@]12C=CC(=O)C=C1CC[C@@H]1[C@@H]2C(=O)C[C@@]2(C)[C@H]1CC[C@]2(O)C(=O)CO [Prednisone]
29.8

Returns the measured CLint scaled at 1 µM for the input molecule. Input: C[C@]12C=CC(=O)C=C1CC[C@@H]1[C@@H]2[C@@H](O)C[C@@]2(C)[C@H]1CC[C@]2(O)C(=O)CO [Prednisolone]
40.8

Returns the measured CLint scaled at 1 µM for the input molecule. Input: C[C@@H]1C[C@H]2[C@@H]3CCC4=CC(=O)C=C[C@]4(C)[C@@]3(F)[C@@H](O)C[C@]2(C)[C@@]1(O)C(=O)CO [Dexamethasone]
28.4

Returns the measured CLint scaled at 1 µM for the input molecule. Input: CCC1=C[C@@H]2CN(C1)Cc1c([nH]c3ccccc13)[C@@](C(=O)OC)(c1cc3c(cc1OC)N(C)[C@H]1[C@@](O)(C(=O)OC)[C@H](OC(C)=O)[C@]4(CC)C=CCN5CC[C@]31[C@@H]54)C2 [Vinorelbin]
436

---

We begin with a simple list: items and their reported fu_HLM.
experiment: Free fraction in HLM incubation, equilibrium dialysis; format: in vitro ADME, human; conditions: fraction unbound, measured or estimated by in silico models of Fuinc

As a guide, the following entries are already answered.
>>> df
                                   compound  data_value
0  O=C(c1ccc(F)cc1)C1CCN(CCn2c(=O)[nH]c3ccccc3c2=O)CC1       0.551
1                Cn1c(=O)c2c(ncn2C)n(C)c1=O       0.963

Returns the measured fu_HLM for the input compound. Input: O=C(O)c1cc(-c2ccc(F)cc2F)ccc1O
0.81

Returns the measured fu_HLM for the input compound. Input: C=CCN1CC[C@]23c4c5ccc(O)c4O[C@H]2C(=O)CC[C@@]3(O)[C@H]1C5
0.969

Returns the measured fu_HLM for the input compound. Input: Cc1c(C)c2c(c(C)c1O)CCC(C)(COc1ccc(CC3SC(=O)NC3=O)cc1)O2 (centres unmarked)
0.071

Each recorded value in this set is attributed to paper PMC12592420.
